Origin of values: ChEMBL document CHEMBL3390837

Reported pIC50 by item:
- study target: NADPH oxidase 5 (Homo sapiens)
- Sequence (Q96PH1 whole entry): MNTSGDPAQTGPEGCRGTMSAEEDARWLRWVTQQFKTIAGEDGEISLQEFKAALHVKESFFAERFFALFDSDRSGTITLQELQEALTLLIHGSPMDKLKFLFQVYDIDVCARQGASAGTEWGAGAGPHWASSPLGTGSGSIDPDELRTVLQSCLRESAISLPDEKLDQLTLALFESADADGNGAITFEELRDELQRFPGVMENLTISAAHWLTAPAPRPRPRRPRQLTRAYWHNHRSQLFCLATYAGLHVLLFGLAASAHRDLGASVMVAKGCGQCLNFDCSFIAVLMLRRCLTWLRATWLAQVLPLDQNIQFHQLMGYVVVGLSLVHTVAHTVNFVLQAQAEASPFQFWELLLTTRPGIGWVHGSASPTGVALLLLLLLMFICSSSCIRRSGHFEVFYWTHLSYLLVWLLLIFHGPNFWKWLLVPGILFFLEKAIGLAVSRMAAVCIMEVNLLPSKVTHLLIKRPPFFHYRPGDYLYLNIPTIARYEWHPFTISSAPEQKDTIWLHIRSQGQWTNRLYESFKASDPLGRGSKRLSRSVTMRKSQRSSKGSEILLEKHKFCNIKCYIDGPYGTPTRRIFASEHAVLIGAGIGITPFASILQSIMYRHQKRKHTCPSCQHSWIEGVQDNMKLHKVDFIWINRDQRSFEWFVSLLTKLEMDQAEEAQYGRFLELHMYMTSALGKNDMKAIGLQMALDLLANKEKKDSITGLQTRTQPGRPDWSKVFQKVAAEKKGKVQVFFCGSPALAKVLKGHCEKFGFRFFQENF
- test summary: Inhibition of full length human NOX5 transfected in HEK cells assessed as inhibition of ionomycin-stimulated ROS generation by chemiluminescence assay
Expect pIC50 as a plain number equal to -log10 of the molar concentration.

compound	pIC50
C=C(C)C[C@H]1[C@H]2c3c(Br)cccc3[C@H](CC2(C)C)N1Cc1cc(C)on1 (racemic)	4.51

Next:
Per the record, C=C(C)C[C@H]1[C@H]2c3ccccc3[C@H](CC2(C)C)N1Cc1cccc(F)c1 (racemic) has pIC50 of 4.30

---

- study target: NADPH oxidase 2 (Homo sapiens)
- Sequence (P04839 whole entry): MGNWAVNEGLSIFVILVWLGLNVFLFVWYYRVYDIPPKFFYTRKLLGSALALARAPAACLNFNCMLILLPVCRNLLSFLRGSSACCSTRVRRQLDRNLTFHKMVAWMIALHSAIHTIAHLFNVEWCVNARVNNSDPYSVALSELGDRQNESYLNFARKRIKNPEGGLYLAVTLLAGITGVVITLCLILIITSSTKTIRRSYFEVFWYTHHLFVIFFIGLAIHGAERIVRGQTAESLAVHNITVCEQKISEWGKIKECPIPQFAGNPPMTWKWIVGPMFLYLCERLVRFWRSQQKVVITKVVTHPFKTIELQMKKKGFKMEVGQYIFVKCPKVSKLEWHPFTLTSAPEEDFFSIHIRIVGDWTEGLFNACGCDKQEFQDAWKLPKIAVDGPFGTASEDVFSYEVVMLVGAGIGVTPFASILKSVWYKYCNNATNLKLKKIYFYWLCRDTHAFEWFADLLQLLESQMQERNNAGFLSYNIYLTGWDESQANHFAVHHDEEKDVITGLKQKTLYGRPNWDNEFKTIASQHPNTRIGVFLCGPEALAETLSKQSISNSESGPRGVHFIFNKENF
- test summary: Inhibition of full length human NOX2 transfected in COS 22 cells assessed as inhibition of Phorbol 12-myristate 13-acetate-stimulated ROS generation by measuring H2O2 production by fluorescence assay in presence of superoxide dismutase
- Format: cell-based
- condition info: read-out: IC50
assay metric: IC50 (µM)
Reply numerically in µM, unit not repeated.

molecule	study target	assay metric	readout value
C=C(C)C[C@H]1[C@H]2c3c(-c4ccc(Cl)c(Cl)c4)cccc3[C@H](CC2(C)C)N1CCCCC (racemic)	NADPH oxidase 2 (Homo sapiens)	IC50	79

Briefly, IC50 measured for C=C(C)C[C@H]1[C@H]2c3c(Br)cccc3[C@H](CC2(C)C)N1CCCCC (racemic) : 20
